System: Proteus vulgaris
methodNotes: MIC against Gram-negative bacteria: Proteus vulgaris
Assay type: cell-based
measurementSetup: P. vulgaris; 10 h cultivation at 37° C.; 5×10^5 CFU/mL
Procedure: 1. Gram-negative bacteria, such as E. coli BL21, Pseudomonas aeruginosa, Klebsiella pneumonia, Enterobacter cloacae, Aeromonas hydrophila, Citrobacter diversus, Moraxella catarrhalis, Proteus mirabilis, Proteus vulgaris, Serratia marcescens, etc were streaked on solid LB medium and cultured respectively. Then, typical clones were picked, inoculated into common liquid LB medium respectively, and cultured at 37° C. with shaking at 185 rpm until the McFarland specific turbidity was 0.5. […]
Measured MIC accompanies every entry in the list below.
Return type: number; implicit unit µg/mL.

Some solved entries appear below for comparison.
| substance | measureUnit | MIC |
| --- | --- | --- |
| PRT425 (DVDECAMGTHTCQPGFLCQNTKGSFYCQARQRCMDGFLQDPEGNCV; listed as Homo sapiens) | µg/mL | 12.5 |
| PRT426 (DINECTSLSEPCRPGFSCINTVGSYTCQRNPLICARGYHASDDGTKCV; listed as Homo sapiens) | µg/mL | 25 |

The substance listed as PRT429 (DVNECEAQRCSQECANIYGSYQCYCRQGYQLAEDGHTCT; listed as Homo sapiens) shows MIC equal to 50

The substance listed as PRT443 (DIDECENTDACQHECKNTFGSYQCICPPGYQLTHNGKTCQ; listed as Homo sapiens) shows MIC equal to 12.5

The substance listed as PRT415 (DINECLSISAPCPIGHTCINTEGSYTCQKNVPNCGRGYHLNEEGTRCV; listed as Homo sapiens) shows MIC equal to 12.5

The substance listed as PRT417 (DVNECQRYPGRLCGHKCENTLGSYLCSCSVGFRLSVDGRSCE; listed as Homo sapiens) shows MIC equal to 12.5

###

Measured MIC against P. mirabilis accompanies every entry in the list below.
Test system: Proteus mirabilis
methodNotes: MIC against Gram-negative bacteria: Proteus mirabilis
Format: cell-based
measurementSetup: Proteus mirabilis; 5×10^5 CFU/mL; 10 h cultivation at 37° C.
Return type: number; implicit unit µg/mL.

The substance listed as PRT1361 (SELICPNDCFDRGRCINGTCYCEEGFTGEDCG; listed as Homo sapiens) shows MIC against P. mirabilis equal to 12.5

###

Measured MIC against E. cloacae accompanies every entry in the list below.
System: Enterobacter cloacae
methodNotes: MIC against Gram-negative bacteria: Enterobacter cloacae
Type: cell-based
measurementSetup: Enterobacter cloacae; 96-well plate, 5×10^5 CFU/mL, 37° C., 10 h
Return type: number; implicit unit µg/mL.

Some solved entries appear below for comparison.
| substance | assaySystem | measureUnit | endpointResult |
| --- | --- | --- | --- |
| PRT1292 (NVDDCEDNDCENNSTCVDGINNYTCLCPPEYTGELCE; listed as Homo sapiens) | Enterobacter cloacae | µg/mL | 50 |
| PRT1288 (ADGPCHGHKCVHGQCVPLDALSYSCQCQDGYSGALCN; listed as Homo sapiens) | Enterobacter cloacae | µg/mL | 50 |
| PRT1298 (PINTCIQNPCQHGGTCHLSDSHKDGFSCSCPLGFEGQRCE; listed as Homo sapiens) | Enterobacter cloacae | µg/mL | 25 |
| PRT1233 (ISEPCPSYCSGHGDCISGVCFCDLGYTAAQGTCV; listed as Homo sapiens) | Enterobacter cloacae | µg/mL | 12.5 |
| PRT1236 (IGDGCIDMCSGHGRCIQGNCVCDEQWGGLYCD; listed as Homo sapiens) | Enterobacter cloacae | µg/mL | 12.5 |
| PRT1301 (DNDDCVAHKCRHGAQCVDTINGYTCTCPQGFSGPFCE; listed as Homo sapiens) | Enterobacter cloacae | µg/mL | 50 |

The substance listed as PRT1199 (AFCEEGCRYGGTCVAPNKCVCPSGFTGSHCE; listed as Homo sapiens) shows MIC against E. cloacae equal to 50

The substance listed as PRT1239 (TIPICEGPDACQKDEVCVKPGLCRCKPGFFGAHCS; listed as Homo sapiens) shows MIC against E. cloacae equal to 50

###

Tested on: Proteus vulgaris
methodNotes: MIC against Gram-negative bacteria: Proteus vulgaris
Format: cell-based
measurementSetup: P. vulgaris; 10 h cultivation at 37° C.; 5×10^5 CFU/mL
Measured MIC (μg/mL) P. vulgaris accompanies every entry in the list below.
Return type: number; implicit unit µg/mL.

Some solved entries appear below for comparison.
| substance | endpointResult |
| --- | --- |
| PRT212 (DIDECESGAHQCSEAQTCVNFHGGYRCV; listed as Homo sapiens) | 12.5 |
| PRT234 (DINECATLSKVSCGKFSDCWNTEGSYDCVCSPGYEPVSGAKTFKNESENTCQ; listed as Homo sapiens) | 12.5 |

The substance listed as PRT788 (WGPHCTSRCQCKNGALCNPITGACHCAAGFRGWRCE; listed as Homo sapiens) shows MIC (μg/mL) P. vulgaris equal to 50

The substance listed as PRT200 (NFSTCLSSKEGTICSGNGVCSNELKCVCNRHWIGSDCN; listed as Homo sapiens) shows MIC (μg/mL) P. vulgaris equal to 50

The substance listed as PRT268 (SFKCRCDSGFALDSEERNCTDIDE; listed as Homo sapiens) shows MIC (μg/mL) P. vulgaris equal to 12.5

The substance listed as PRT820 (YGDNCRHSCLCQNGGTCDPVSGHCACPEGWAGLACE; listed as Homo sapiens) shows MIC (μg/mL) P. vulgaris equal to 12.5

The substance listed as PRT760 (KLDSCALGDHGCEHSCVSSEDSFVCQCFEGYILREDGKTCR; listed as Homo sapiens) shows MIC (μg/mL) P. vulgaris equal to 50

The substance listed as PRT230 (DVDECADPRACPEHATCNNTVGNYSCFCNPGFESSSGHLSFQGLKASCE; listed as Homo sapiens) shows MIC (μg/mL) P. vulgaris equal to 12.5

###

Test system: Citrobacter diversus
methodNotes: MIC against Gram-negative bacteria: Citrobacter diversus
Format: cell-based
measurementSetup: C. diversus; 10 h cultivation at 37° C.; 5×10^5 CFU/mL
assayReadout: MIC (μg/mL) C. diversus (µg/mL)
Return type: number; implicit unit µg/mL.

| substance | assaySystem | measureUnit | MIC (μg/mL) C. diversus |
| --- | --- | --- | --- |
| PRT803 (HGKGCQLPCQCRHGASCDPRAGECLCAPGYTGVYCE; listed as Homo sapiens) | Citrobacter diversus | µg/mL | 25 |
| PRT195 (MGYNCNATTKCKGKGICNNFGNCQCFPGHRPPDCK; listed as Homo sapiens) | Citrobacter diversus | µg/mL | 12.5 |
| PRT153 (DCLACQGGSQRPCSGNGHCSGDGSRQGDGSCRCHMGYQGPLCT; listed as Homo sapiens) | Citrobacter diversus | µg/mL | 25 |
| PRT212 (DIDECESGAHQCSEAQTCVNFHGGYRCV; listed as Homo sapiens) | Citrobacter diversus | µg/mL | 12.5 |
| PRT882 (SAKQCDSYPCKNNAVCKDGWNRFICDCTGTGYWGRTCE; listed as Homo sapiens) | Citrobacter diversus | µg/mL | 50 |

The substance listed as PRT813 (FGVNCSSSCSCGGAPCHGVTGQCRCPPGRTGEDCE; listed as Homo sapiens) shows MIC (μg/mL) C. diversus equal to 25

The substance listed as PRT785 (IHTCNCHNGAFCSAYDGECKCTPGWTGLYCT; listed as Homo sapiens) shows MIC (μg/mL) C. diversus equal to 12.5

The substance listed as PRT865 (CSCHPVGSAVLPANSVTFCDPSNGDCPCKPGVAGRRCDRCMVGYWGFGDYGCRP; listed as Homo sapiens) shows MIC (μg/mL) C. diversus equal to 12.5

###

System: Aeromonas hydrophila
methodNotes: MIC against Gram-negative bacteria: Aeromonas hydrophila
Assay type: cell-based
measurementSetup: A. hydrophila; 10 h cultivation at 37° C.; 5×10^5 CFU/mL
assayReadout: MIC (μg/mL) A. hydrophila (µg/mL)
Return type: number; implicit unit µg/mL.

Some solved entries appear below for comparison.
| substance | endpointResult |
| --- | --- |
| PRT234 (DINECATLSKVSCGKFSDCWNTEGSYDCVCSPGYEPVSGAKTFKNESENTCQ; listed as Homo sapiens) | 12.5 |
| PRT807 (YGDGCQLPCTCQNGADCHSITGGCTCAPGFMGEVCA; listed as Homo sapiens) | 12.5 |
| PRT878 (ADPLCAPARNPCANGGLCTVLAPGEVGCDCSHTGFGGKFCS; listed as Homo sapiens) | 50 |
| PRT202 (KSTNCSSKCKGHAVCDHELQCQCEEGWIPPDCD; listed as Homo sapiens) | 12.5 |
| PRT156 (DINECDSNPCHHGGSCLDQPNGYNCHCPHGWVGANCE; listed as Homo sapiens) | 25 |

The substance listed as PRT257 (CTDGHRGGCSEHANCLSTGLNTRRCECHAGYVGDGLQC; listed as Homo sapiens) shows MIC (μg/mL) A. hydrophila equal to 25

The substance listed as PRT149 (LSNICLSHPCLNGQCIDTVSGYFCKCDSGWTGVNCT; listed as Homo sapiens) shows MIC (μg/mL) A. hydrophila equal to 25

The substance listed as PRT848 (CQCNNRSASCDALTGACLNCQENSKGNHCEECKEGFYQSPDATKECLR; listed as Homo sapiens) shows MIC (μg/mL) A. hydrophila equal to 12.5
